Reference for the values: paper PMC9926234

This listing pairs compounds with measured displacement of the ADPr-conjugated peptide (off-target activity).
Molecular target: TARG1 (Homo sapiens)
Construct: Targ1_HTRF; HTRF assay; pET22b(+); His6, TEV; 1-153; made in house
Sequence (Q9Y530 with tags, fused parts or gaps): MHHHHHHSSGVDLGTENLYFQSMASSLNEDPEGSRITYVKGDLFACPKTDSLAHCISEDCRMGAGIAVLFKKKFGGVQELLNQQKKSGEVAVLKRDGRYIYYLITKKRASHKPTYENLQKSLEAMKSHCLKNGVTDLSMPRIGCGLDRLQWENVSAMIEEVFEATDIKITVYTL
Experiment: adapted HTRF-based peptide displacement assay (off-target)
Assay type: binding
Details: compound at 1 mM
Reply numerically in %, unit not repeated.

{"columns": ["compound", "assayResult"],
 "data": [
  ["O=C(O)C1(F)CN(c2ncnc3[nH]c4cc(F)ccc4c23)CC12CCC2 (stereo not shown) [LL1_0023]", 50]
]}

Which displacement of the ADPr-conjugated peptide (off-target activity) reading was recorded for the compound O=C(O)CC1CN(c2ncnc3[nH]c4cc(F)ccc4c23)CCO1 (stereo not shown) [LL1_0014] ?
50
